tested on: HEK-293T; test: Multiplex assay against HEK293T; type: toxicity, cell-based; conditions: human, 12 h, 1 µM, compound concentration 1 uM, replicate 1
measurement.kind: Population Apoptotic (%)
Give bare numbers, in %.

Check out these entries, answers already filled in.
[
  {
    "molecule": "CN1CCCC(n2nc(Cc3ccc(Cl)cc3)c3ccccc3c2=O)CC1.Cl (configuration not stated) [AZELASTINE HYDROCHLORIDE]",
    "units.of.measure": "%",
    "quantitative.readout": 50
  },
  {
    "molecule": "CN1CCN(CCOc2cc(OC3CCOCC3)c3c(Nc4c(Cl)ccc5c4OCO5)ncnc3c2)CC1 [SARACATINIB]",
    "units.of.measure": "%",
    "quantitative.readout": 51
  },
  {
    "molecule": "OC1(c2ccc(Cl)cc2)CCN(Cc2c[nH]c3ccccc23)CC1",
    "units.of.measure": "%",
    "quantitative.readout": 51
  },
  {
    "molecule": "Cc1nc(Nc2n[nH]c3c2CN(C(=O)N[C@H](CN(C)C)c2ccccc2)C3(C)C)c2sccc2n1 [PF-03758309]",
    "units.of.measure": "%",
    "quantitative.readout": 22
  },
  {
    "molecule": "CN(C)C(=O)N[C@H]1CC[C@H](CCN2CCN(c3cccc(Cl)c3Cl)CC2)CC1.Cl [CARIPRAZINE HYDROCHLORIDE]",
    "units.of.measure": "%",
    "quantitative.readout": 48
  },
  {
    "molecule": "Cn1cc(-c2[nH]c3cc(NC(=O)[C@H](N)C4CCCCC4)cc4c3c2C=NNC4=O)cn1",
    "units.of.measure": "%",
    "quantitative.readout": 40
  }
]

Prompt line: Print HEK-293T Population Apoptotic (%) for CN(C)CC#Cc1ccc(OCCCc2sc(N3CCc4cccc(C(=O)Nc5nc6ccccc6s5)c4C3)nc2C(=O)O)c(F)c1 [A-1155463] .
Response line: 33
